Tested on: WEE1 (Homo sapiens, UniProt P30291+Q96SW2)
Construct: C-terminal ePL-tagged (DiscoverX, Fremont, CA) full-length WEE1 expression construct; expressed in transfected cells; host or cells: LentiX-HEK293T (Invitrogen), lentiviral transduction; co-expressing GSPT1-GN (G576N, lacking the first 158 amino acids)
Test: WEE1-ePL degradation assay (LentiX-WEE1-ePL-GSPT1-ND cells, InCELL Hunter luminescence, 4 h)
Format: cell-based
Condition label: 293T-LentiX WEE1-ePL cells, read-out: 293T-LentiX WEE1-ePL Degradation 4 hr (EC50)
Value type: DC50 (nM)

> print(dat)
                                   compound  assay.value
1  O=C1CCC(N2Cc3cc(O[C@H]4CCN(Cc5cnc6ccc(F)cc6c5)C4)ccc3C2=O)C(=O)N1 (stereo partly shown)         9.19
2  O=C1CCC(N2Cc3cc(O[C@H]4CCN(Cc5ccc6nc([C@@H]7CCOC7)ccc6c5)C4)ccc3C2=O)C(=O)N1 (stereo partly shown)         2.41

A = O=C1CCC(N2Cc3cc(O[C@@H]4CN(Cc5ccc6nc([C@@H]7CCOC7)ccc6c5)CC4(F)F)ccc3C2=O)C(=O)N1 (stereo partly shown)
B = CC(=O)N1CCN(c2ccc3cc(CN4CC[C@H](Oc5ccc6c(c5)CN([C@H]5CCC(=O)NC5=O)C6=O)C4)ccc3n2)CC1
C = O=C1CCC(N2Cc3cc(O[C@@H]4CN(Cc5ccc6nc([C@@H]7CCOC7)ccc6c5)C[C@@H]4F)ccc3C2=O)C(=O)N1 (stereo partly shown)
D = O=C1CCC(N2Cc3cc(O[C@@H]4CN(Cc5ccc6nc([C@H]7CCOC7)ccc6c5)C[C@@H]4F)ccc3C2=O)C(=O)N1 (stereo partly shown)
E = O=C1CCC(N2Cc3cc(O[C@H]4CCN(Cc5ccc6nc(N7CCS(=O)(=O)CC7)ccc6c5)C4)ccc3C2=O)C(=O)N1 (stereo partly shown)
Request: Order the 5 compounds from highest to lowest DC50. List the labels according to the requested ordering.
Response: E, A, C, D, B
(E: 19.1 nM, A: 8.39 nM, C: 5.69 nM, D: 3.84 nM, B: 1.69 nM)

----------
Tested on: WEE1 (Homo sapiens, UniProt P30291+Q96SW2)
Construct: C-terminal ePL-tagged (DiscoverX, Fremont, CA) full-length WEE1 expression construct; expressed in transfected cells; host or cells: LentiX-HEK293T (Invitrogen), lentiviral transduction; co-expressing GSPT1-GN (G576N, lacking the first 158 amino acids)
Test: WEE1-ePL degradation assay (LentiX-WEE1-ePL-GSPT1-ND cells, InCELL Hunter luminescence, 4 h)
Assay type: cell-based
Condition label: 293T-LentiX WEE1-ePL cells, read-out: 293T-LentiX WEE1-ePL Degradation 4 hr (EC50)
Value type: DC50 (nM)

Completed entries (count: 2):
> print(dat)
                                   molecule  value.type  units  assay.value
1  O=C1CCC(N2Cc3cc(O[C@H]4CCN(Cc5cc6ccccc6nc5C(F)(F)F)C4)ccc3C2=O)C(=O)N1 (stereo partly shown)        DC50     nM         29.3
2  O=C1CCC(N2Cc3cc(O[C@H]4CCN(Cc5ccc6nc(C(F)F)ccc6c5)C4)ccc3C2=O)C(=O)N1 (stereo partly shown)        DC50     nM         2.96

P = O=C1CCC(N2Cc3cc(O[C@H]4CCN(Cc5cc6ccc([C@@H]7CCOC7)cc6cn5)C4)ccc3C2=O)C(=O)N1 (stereo partly shown)
Q = Cc1ncc2ccc(CN3CC[C@H](Oc4ccc5c(c4)CN(C4CCC(=O)NC4=O)C5=O)C3)cc2n1 (stereo partly shown)
Request: Problem: Given the entries P and Q , determine which has the lower reported DC50. API: response body contains the label of the selected item.
Response: P
(P: 1.66 nM, Q: 65.5 nM)

The reported measurements were obtained from patent US20240067632A1.
